# Assay Remarks: Phase 1a single ascending dose study: UV-4 plasma concentrations and PK parameters (LC-MS/MS, noncompartmental)
# Assay type: in vivo
# Condition: both sexes, human, plasma, po, 90 mg, 90 mg single oral dose; median; read-out: tmax
Observation Type: Tmax (min)
Report the value in min with no unit label.

Briefly, Tmax measured for `COCCCCCCCCCN1C[C@H](O)[C@@H](O)[C@H](O)[C@H]1CO` : 30

====

# Assay Remarks: Phase 1a single ascending dose study: UV-4 in pooled urine, urinary recovery and renal clearance
# Type: in vivo, human
# Condition: both sexes, human, urine and plasma, po, 3 mg, 3 mg single oral dose; Geo Mean
Observation Type: CL renal (mL/min)
Report the value in mL/min with no unit label.

Briefly, CL renal measured for `COCCCCCCCCCN1C[C@H](O)[C@@H](O)[C@H](O)[C@H]1CO` : 238

====

# Assay Remarks: Phase 1a single ascending dose study: UV-4 in pooled urine, urinary recovery and renal clearance
# Assay type: in vivo, human
# Condition: human, urine, oral, 3 to 1000 mg dose range, 48 hours; read-out: UV-4 recovery in urine, range of dose group means
Observation Type: dose excreted

Briefly, dose excreted measured for `COCCCCCCCCCN1C[C@H](O)[C@@H](O)[C@H](O)[C@H]1CO` : 39.8 to 55.1%

====

# Assay Remarks: Phase 1a single ascending dose study: UV-4 plasma concentrations and PK parameters (LC-MS/MS, noncompartmental)
# Format: in vivo
# Condition: both sexes, human, plasma, po, 180 mg, 180 mg single oral dose; Ar Mean; read-out: t1/2 (converted)
Observation Type: half-life

Briefly, half-life measured for `COCCCCCCCCCN1C[C@H](O)[C@@H](O)[C@H](O)[C@H]1CO` : 8.7 h

====

# Assay Remarks: Phase 1a single ascending dose study: UV-4 plasma concentrations and PK parameters (LC-MS/MS, noncompartmental)
# Format: in vivo
# Condition: both sexes, human, plasma, po, 1000 mg, 1000 mg single oral dose; Geo Mean; read-out: AUC(0-inf)
Observation Type: AUC(0-inf) (ng·h/mL)
Report the value in ng·h/mL with no unit label.

Briefly, AUC(0-inf) measured for `COCCCCCCCCCN1C[C@H](O)[C@@H](O)[C@H](O)[C@H]1CO` : 42800

====

# Assay Remarks: Phase 1a single ascending dose study: UV-4 plasma concentrations and PK parameters (LC-MS/MS, noncompartmental)
# Type: in vivo
# Condition: both sexes, human, plasma, po, 360 mg, 360 mg single oral dose; Geo Mean; read-out: Vz/F
Observation Type: Vd/F (L)
Report the value in L with no unit label.

Briefly, Vd/F measured for `COCCCCCCCCCN1C[C@H](O)[C@@H](O)[C@H](O)[C@H]1CO` : 308

====

# Assay Remarks: Phase 1a single ascending dose study: UV-4 plasma concentrations and PK parameters (LC-MS/MS, noncompartmental)
# Format: in vivo
# Condition: both sexes, human, plasma, po, 180 mg, 180 mg single oral dose; median; read-out: tmax
Observation Type: Tmax
Units required after the number.

Briefly, Tmax measured for `COCCCCCCCCCN1C[C@H](O)[C@@H](O)[C@H](O)[C@H]1CO` : 48 min

====

# Assay Remarks: Phase 1a single ascending dose study: UV-4 in pooled urine, urinary recovery and renal clearance
# Assay type: in vivo, human
# Condition: human, urine, po, 10 mg, 10 mg single oral dose; Ar Mean
Observation Type: CL renal (mL/min)
Report the value in mL/min with no unit label.

Briefly, CL renal measured for COCCCCCCCCCN1C[C@H](O)[C@@H](O)[C@H](O)[C@H]1CO [UV-4B] : 195

Just for reference, paper PMC9387934 is where these values come from.
